Target: Serine/threonine-protein kinase PLK1 (Homo sapiens) (UniProt P53350)
Sequence (P53350 whole entry, the tested form may be a part): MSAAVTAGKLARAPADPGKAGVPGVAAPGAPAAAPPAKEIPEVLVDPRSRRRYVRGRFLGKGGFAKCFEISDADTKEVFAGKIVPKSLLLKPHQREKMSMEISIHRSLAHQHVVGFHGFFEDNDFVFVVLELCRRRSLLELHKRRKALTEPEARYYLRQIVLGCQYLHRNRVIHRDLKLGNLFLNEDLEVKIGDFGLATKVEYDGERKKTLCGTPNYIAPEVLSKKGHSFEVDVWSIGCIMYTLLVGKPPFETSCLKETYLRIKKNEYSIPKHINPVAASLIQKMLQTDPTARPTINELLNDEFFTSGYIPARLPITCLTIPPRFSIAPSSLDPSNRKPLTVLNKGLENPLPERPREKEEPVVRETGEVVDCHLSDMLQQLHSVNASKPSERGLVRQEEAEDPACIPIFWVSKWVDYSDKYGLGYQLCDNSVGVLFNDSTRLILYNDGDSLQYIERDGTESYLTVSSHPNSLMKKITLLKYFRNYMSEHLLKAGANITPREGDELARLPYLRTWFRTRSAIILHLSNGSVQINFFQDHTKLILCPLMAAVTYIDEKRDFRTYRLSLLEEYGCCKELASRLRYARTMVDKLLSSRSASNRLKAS
Experiment: Inhibition of human PLK1 (1 to 603 residues) assessed as enzyme activity at 1 uM using 33P ATP by radioactive filter binding assay
Set-up: scale not given: the % may be the effect or the level left
measured endpoint: Activity (%)

> print(dat)
                            chemical.string                              assay.system  reported.value
1  CCCCc1cc(-c2c[nH]c3ncc(-c4cnn(C5CCNCC5)c4)cc23)nc(N)n1  Serine/threonine-protein kinase PLK1 (Homo sapiens) (UniProt P53350)             -41

(A) CCCCc1cc(-c2c[nH]c3ncccc23)nc(N)n1
(B) Nc1nccc(-c2c[nH]c3ncccc23)n1
(C) CCc1cc(-c2c[nH]c3ncc(-c4cnn(C5CCNCC5)c4)cc23)nc(N)n1
Could you please order the items by Activity, going from the lowest number to the highest? Respond with the label ranking, as requested. C, B, A
(C: -41%, B: -26%, A: -6%)
